assay_target: Steroidogenic factor 1 (Homo sapiens)
Sequence (Q13285 whole entry): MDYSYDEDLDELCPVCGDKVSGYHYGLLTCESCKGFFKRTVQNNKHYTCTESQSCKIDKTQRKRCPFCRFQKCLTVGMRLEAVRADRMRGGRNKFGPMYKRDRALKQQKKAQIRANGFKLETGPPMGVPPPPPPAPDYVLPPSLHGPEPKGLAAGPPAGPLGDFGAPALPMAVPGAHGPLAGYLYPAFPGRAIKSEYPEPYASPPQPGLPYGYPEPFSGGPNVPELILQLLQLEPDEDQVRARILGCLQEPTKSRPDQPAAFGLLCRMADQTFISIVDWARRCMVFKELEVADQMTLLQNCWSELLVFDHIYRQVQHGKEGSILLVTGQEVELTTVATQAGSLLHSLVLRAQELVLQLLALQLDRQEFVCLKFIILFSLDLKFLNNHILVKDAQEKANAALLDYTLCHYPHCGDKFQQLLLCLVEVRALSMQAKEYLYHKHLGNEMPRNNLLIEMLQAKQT
assay_text: Binding affinity to human SF1 relative to 3-Hexyl-1-phenylamino-2-phenyl-cis-bicyclo[3.3.0]oct-2-ene1 by FRET-based peptide recruitment assay
readout: Efficacy (%)

Answered cases to consult:
{"compound": "CCCCC/C=C(\\CCCCC)C1=C(c2ccccc2)[C@]2(Nc3ccccc3)CCC[C@@H]2C1 (relative stereo)", "Efficacy [%]": 30}
{"compound": "CCC/C=C(\\CCC)C1=C(c2ccccc2)[C@]2(Nc3ccccc3)CCC[C@@H]2C1 (relative stereo)", "Efficacy [%]": 50}
{"compound": "CCC/C=C(\\CCC)C1=C(C2CCCCC2)[C@]2(Nc3ccccc3)CCC[C@@H]2C1 (relative stereo)", "Efficacy [%]": 90}

P: CCC/C=C(\CCC)C1=C(CCCC)[C@]2(Nc3ccccc3)CCC[C@@H]2C1 (relative stereo)
Q: CCC/C=C(\CCC)C1=C(c2cccc(OC)c2)[C@]2(Nc3ccccc3)CCC[C@@H]2C1 (relative stereo)
Given P and given Q , which shows the smaller recorded Efficacy? Refer to your chosen item by its label in the answer.
Q

Data credit: ChEMBL document CHEMBL1137321
